These entries and their values trace back to patent US20240000075A1.

pest or weed control at 200 ppm reference
- System: Zymoseptoria tritici
- Measurement Notes: Septoria leaf blotch of wheat, whole-plant fungicidal activity (SEPTTR)
- Assay type: in vivo, Zymoseptoria tritici on wheat plants (variety 'Yuma')
- Test Context: 72 h, 3DC (3 day curative), read-out: % Disease Control Rating SEPTTR

Answered examples (3):
CCN(C)/C=N/c1cc(C)c(C(=O)Cc2ccccc2F)cc1C < 20%
Cc1cc(C(=O)CC2CCCCC2)c(C)cc1/N=C/N(C)C < 20%
Cc1cc(C(=O)Cc2c(F)cc(F)cc2F)c(C)cc1/N=C1\CCCCN1C < 20%

Kindly note the recorded pest or weed control at 200 ppm for Cc1cc(C(=O)CC2CCCCC2)c(C)cc1/N=C(\S)N1CCCCC1 , which is 20 to 50%

// pest or weed control at 200 ppm value for CCN(C)/C(S)=N/c1cc(C)c(C(=O)CC2CCCC2)cc1C : < 20%

###

- System: Rhynchosporium commune
- Measurement Notes: Leaf blotch of barley, whole-plant fungicidal activity (RHYNSE)
- Type: in vivo
- Test Context: 24 h, 1DP (1 day protectant), read-out: % Disease Control Rating RHYNSE
Examples of compounds with documented pest or weed control at 200 ppm follow.

Solved entries:
Compound	Assay Target	Reported
CCN(C)/C=N/c1cc(C)c(C(=O)Cc2ccccc2)cc1C [Compound 2]	Rhynchosporium commune	> 85%
CCN(/C=N/c1cc(C)c(C(=O)Cc2c(F)cc(F)cc2F)cc1C)CC [Compound 78]	Rhynchosporium commune	< 20%
CCN(C)/C=N/c1cc(C)c(C(=O)Cc2ccccc2OC(F)F)cc1C [Compound 83]	Rhynchosporium commune	> 85%

Record CCN(CC)/C(S)=N/c1cc(C)c(C(=O)CC2CCCCC2)cc1C [Compound 55] . Reported pest or weed control at 200 ppm: < 20%

Form field pest or weed control at 200 ppm, entry CCN(C)/C=N/c1cc(OC)c(C(=O)CC2CCCCC2)cc1C [Compound 72] : < 20%

###

- Test system: Phakopsora pachyrhizi
- Measurement Notes: Asian soybean rust, whole-plant fungicidal activity (PHAKPA)
- Assay type: in vivo
- Test Context: 72 h, 3DC (3 day curative), read-out: % Disease Control Rating PHAKPA
Each entry below carries its recorded pest or weed control at 200 ppm.

Molecule	Assay Target	pest or weed control at 200 ppm
CCN(C)/C=N/c1cc(C)c(C(=O)C2CCCCC2)cc1C [Compound 26]	Phakopsora pachyrhizi	> 85%
CCN(C)/C(S)=N/c1cc(C)c(C(=O)Cc2c(F)cc(F)cc2F)cc1C [Compound 93]	Phakopsora pachyrhizi	> 85%
Cc1cc(C(=O)CC2CCCC2)c(C)cc1/N=C/N1CCCCC1 [Compound 80]	Phakopsora pachyrhizi	> 85%
CCN(C)/C(S)=N/c1cc(C)c(C(=O)CC2CCCC2)cc1C [Compound 94]	Phakopsora pachyrhizi	> 85%
Cc1cc(C(=O)CC2CCCCC2)c(C)cc1/N=C/N1CCCC1 [Compound 41]	Phakopsora pachyrhizi	> 85%

Entry under test: CCN(C)/C=N/c1ccc(C(=O)Cc2ccc(C)cc2)c(C)c1C [Compound 12] . Its pest or weed control at 200 ppm was 50 to 85%

###

- Test system: Phakopsora pachyrhizi
- Measurement Notes: Asian soybean rust, whole-plant fungicidal activity (PHAKPA)
- Assay type: in vivo
- Test Context: 72 h, 3DC (3 day curative), read-out: % Disease Control Rating PHAKPA
Result Type: pest or weed control at 200 ppm

Cc1cc(C(=O)CC2CCCC2)c(C)cc1/N=C/N(C)C(C)C > 85%

Entry Cc1cc(C(=O)CC2CCCCC2)c(C)cc1/N=C(\S)N(C)CC(F)(F)F ; pest or weed control at 200 ppm = < 20%

Measured pest or weed control at 200 ppm of Cc1cc(C(=O)CC2CCCCC2)c(C)cc1/N=C(\S)N(C)c1ccccc1 : < 20%

###

melting point reference

Some solved cases for reference:
CCN(C)/C=N/c1ccc(C(=O)Cc2cccc(C(F)(F)F)c2)c(C)c1C 53 to 57 °C
CCN(C)/C=N/c1cc(C)c(C(=O)Cc2ccccc2C)cc1C 101 to 105 °C
CCN(C)/C=N/c1cc(C)c(C(=O)CC2CCCCC2)cc1C 69 to 71 °C
CCN(C)/C=N/c1cc(C)c(C(=O)Cc2ccc(OC(F)(F)F)cc2)cc1C 70 to 74 °C
CCN(C)/C=N/c1cc(C)c(C(=O)Cc2ccc(C)cc2F)cc1C 102 to 105 °C

Continue with the molecule presented below.
Noted for CCN(C)/C=N/c1ccc(C(=O)CCC(F)(F)F)c(C)c1C : its melting point reads 52 to 56 °C

###

- Tested on: Rhynchosporium commune
- Measurement Notes: Leaf blotch of barley, whole-plant fungicidal activity (RHYNSE)
- Format: in vivo
- Test Context: 24 h, 1DP (1 day protectant), read-out: % Disease Control Rating RHYNSE
Result Type: pest or weed control at 200 ppm

CCN(C)/C=N/c1ccc(C(=O)CC2CCCCC2)c(C)c1C 50 to 85%
CCN(C)/C=N/c1cc(C)c(C(=O)CC2CCCC2)cc1C > 85%
CCN(C)/C=N/c1cc(C)c(C(=O)Cc2ccccc2OC(F)(F)F)cc1C > 85%
CCN(C)/C=N/c1cc(C)c(C(=O)Cc2ccc(C(F)(F)F)cc2)cc1C > 85%

We next turn to a different compound, shown below.
# lookup: CCN(C)/C=N/c1cc(C)c(C(=O)Cc2ccc(F)cc2F)cc1C on Rhynchosporium commune, pest or weed control at 200 ppm = > 85%

###

- Tested on: Phakopsora pachyrhizi
- Measurement Notes: Asian soybean rust, whole-plant fungicidal activity (PHAKPA)
- Type: in vivo
- Test Context: 72 h, 3DC (3 day curative), read-out: % Disease Control Rating PHAKPA
Result Type: pest or weed control at 200 ppm

CCN(C)/C=N/c1cc(C)c(C(=O)Cc2cccc(C(=O)OC)c2)cc1C < 20%
CCN(C)/C=N/c1cc(C)c(C(=O)Cc2ccc(C(C)(C)C)cc2)cc1C > 85%
C=CCN(C)/C=N/c1cc(C)c(C(=O)CC2CCCCC2)cc1C > 85%
Cc1cc(C(=O)CC2CCCCC2)c(C)cc1/N=C/N1CCCCC1 > 85%
CCN(C)/C=N/c1cc(C)c(C(=O)Cc2ccc(Cl)cc2)cc1C > 85%

Entry CCN(C)/C=N/c1cc(C)c(C(=O)Cc2ccccc2F)cc1C , tested on Phakopsora pachyrhizi, has a reported pest or weed control at 200 ppm of > 85%

Measured pest or weed control at 200 ppm (Phakopsora pachyrhizi), entry CCN(C)/C=N/c1ccc(C(=O)Cc2c(F)cc(F)cc2F)cc1C : > 85%

Result for Cc1cc(C(=O)CC2CCCCC2)c(C)cc1/N=C(\S)N(C)C1CC1 , tested on Phakopsora pachyrhizi, pest or weed control at 200 ppm: 50 to 85%

Assay Phakopsora pachyrhizi, sample CCN(C)/C=N/c1cc(C)c(C(=O)Cc2ccccc2OC(F)F)cc1C , pest or weed control at 200 ppm read: > 85%

###

Overview of recorded melting point for various compounds

// known answers, use as guide
CCN(C)/C=N/c1ccc(C(=O)CC2CCCCC2)c(C)c1C 68 to 72 °C
CCN(C)/C=N/c1cc(C)c(C(=O)Cc2ccc(C)cc2)cc1C 90 to 93 °C
CCN(C)/C=N/c1cc(C)c(C(=O)Cc2ccccc2)cc1C 43 to 46 °C

# melting point of CCN(C)/C=N/c1cc(C)c(C(=O)Cc2cccc(C(F)(F)F)c2)cc1C = 73 to 76 °C

Please fill in: melting point reported for CCN(C)/C=N/c1ccc(C(=O)CCCC(F)(F)F)c(C)c1C = 49 to 52 °C

###

Examples of compounds with documented pest or weed control at 200 ppm follow.
- Tested on: Zymoseptoria tritici
- Measurement Notes: Septoria leaf blotch of wheat, whole-plant fungicidal activity (SEPTTR)
- Assay type: in vivo, Zymoseptoria tritici on wheat plants (variety 'Yuma')
- Test Context: 72 h, 3DC (3 day curative), read-out: % Disease Control Rating SEPTTR

Below, 4 compounds whose answers are already recorded.
CCN(C)/C=N/c1cc(C)c(C(=O)Cc2ccc(OC(F)(F)F)cc2)cc1C 20 to 50%
CCN(C)/C=N/c1cc(C)c(C(=O)Cc2ccc3c(c2)CCC3)cc1C < 20%
CCN(C)/C=N/c1cc(C)c(C(=O)CC2CCCC2)cc1C 50 to 85%
CCN(C)/C=N/c1ccc(C(=O)Cc2ccccc2)c(C)c1C < 20%

Lab note: compound CCN(/C=N/c1cc(C)c(C(=O)CC2CCCC2)cc1C)CC tested on Zymoseptoria tritici; recorded pest or weed control at 200 ppm was < 20%

Lab note: compound CCN(C)/C=N/c1cc(OC)c(C(=O)CC2CCCC2)cc1C tested on Zymoseptoria tritici; recorded pest or weed control at 200 ppm was < 20%

The measured pest or weed control at 200 ppm that CCN(C)/C=N/c1cc(C)c(C(=O)Cc2c(F)cc(F)cc2F)cc1C showed for Zymoseptoria tritici is < 20%

Recorded pest or weed control at 200 ppm for CCN(C)/C=N/c1ccc(C(=O)Cc2ccc(C)cc2)c(C)c1C on Zymoseptoria tritici was < 20%

Kindly note: Zymoseptoria tritici, CCN(C)/C=N/c1cc(C)c(C(=O)Cc2ccccc2)cc1C , pest or weed control at 200 ppm value reported: < 20%
